System: PfAP2-I AP2 domain 3 (GST-tagged)
Test: gcPBM binding intensity (ln(normalized median fluorescence intensity)); higher = stronger DNA binding
The full ranking holds about 25,000 sequences; the median of “ln(normalized median fluorescence intensity)” is about 7.9, and the highest 2% start at about 11. The entries come from a sample that favours the highest values as a whole.
// gcPBM binding intensity (ln) lookup, one value per entry

# residue-string, system, gcPBM binding intensity (ln)
data = [
    ("AACTCATAGCGGTGTGCACACAAAAAATTAAAAAAA [CACACA_site3033]", "PfAP2-I AP2 domain 3 (GST-tagged)", 9.9),
    ("TATATATATTTATGCACACAAAATATATTATAGAAT [CACACA_site3740]", "PfAP2-I AP2 domain 3 (GST-tagged)", 9.99),
    ("GAGATTTATTTATGTGCACACTAGAACAATTGGATC [CACACA_site2090]", "PfAP2-I AP2 domain 3 (GST-tagged)", 9.99),
]
